Taken from PubChem BioAssay AID720673.

experimental-target: Botulinum neurotoxin type A light chain (Clostridium botulinum A ATCC 3502)
experiment: BoNT/A light chain protease inhibitors, dose response, biochemical, powder set 03 (AID 720673)
particulars: BoNT/A LC protease, multiplex microsphere substrate cleavage assay
Calls of active or inactive are those of the source. How the calls were made is not given here.
Labels: 1 for active, -1 for inactive

> print(dat)
                              smiles.string  answer.label
1  Fc1cccc(-c2cn3nc(-c4ccccc4)c(-c4ccccc4)nc3n2)c1            -1
2  CC(C)CS(=O)(=O)Nc1ccc2nc(-c3ccccc3)c(-c3ccccc3)nc2c1            -1
3  Cc1ccc(-c2nc3nc(-c4ccc(OC(F)(F)F)cc4)cn3nc2-c2ccc(C)cc2)cc1             1
4  CCC(=O)Nc1ccc2nc(-c3cccs3)c(-c3cccs3)nc2c1            -1
5  O=C(Nc1ccc2nc(-c3ccccc3)c(-c3ccccc3)nc2c1)C1CCC1            -1
6  COc1ccc(-c2cn3nc(-c4ccc(F)cc4)c(-c4ccc(F)cc4)nc3n2)c(OC)c1             1
7  O=C(Nc1ccc2nc(-c3ccccc3)c(-c3ccccc3)nc2c1)C1CC1            -1
8  COC(=O)Nc1ccc2nc(-c3ccccc3)c(-c3ccccc3)nc2c1            -1

###

experimental-target: Botulinum neurotoxin type A light chain (Clostridium botulinum A ATCC 3502)
experiment: BoNT/A light chain protease inhibitors, dose response, biochemical, powder set 03 (AID 720673)
particulars: BoNT/A LC protease, multiplex microsphere substrate cleavage assay
Activity calls are given as the source filed them. The rule behind the calls is not given here.
Labels: active, inactive

> print(dat)
                               smiles.string  answer.label
 1  CCS(=O)(=O)Nc1ccc2nc(-c3ccccc3)c(-c3ccccc3)nc2c1      inactive
 2  CCOC(=O)Nc1ccc2nc(-c3ccccc3)c(-c3ccccc3)nc2c1      inactive
 3  COc1cccc(-c2cn3nc(-c4ccc(F)cc4)c(-c4ccc(F)cc4)nc3n2)c1        active
 4  COc1ccc(-c2nc3nc(-c4ccccc4OC)cn3nc2-c2ccc(OC)cc2)cc1        active
 5  COc1ccc(-c2nc3nc(-c4ccc(C#N)cc4)cn3nc2-c2ccc(OC)cc2)cc1        active
 6  CS(=O)(=O)c1ccc(-c2cn3nc(-c4ccccc4)c(-c4ccccc4)nc3n2)cc1        active
 7  Fc1ccc(-c2cn3nc(-c4ccc(F)cc4)c(-c4ccc(F)cc4)nc3n2)cc1        active
 8  Cc1ccc(-c2nc3nc(-c4cccc(F)c4)cn3nc2-c2ccc(C)cc2)cc1        active
 9  CCNC(=O)Nc1ccc2nc(-c3cccs3)c(-c3cccs3)nc2c1        active
10  CCC(=O)Nc1ccc2nc(-c3ccccc3)c(-c3ccccc3)nc2c1      inactive
11  COc1ccc(-c2nc3nc(-c4cccc(OC)c4)cn3nc2-c2ccc(OC)cc2)cc1        active
12  COc1ccc(-c2nc3nc(-c4ccc(OC(F)(F)F)cc4)cn3nc2-c2ccc(OC)cc2)cc1        active
13  CC(C)NC(=O)Nc1ccc2nc(-c3ccccc3)c(-c3ccccc3)nc2c1      inactive
14  Cc1ccc(-c2nc3nc(-c4ccc(F)cc4)cn3nc2-c2ccc(C)cc2)cc1        active
15  CC(C)(C)NC(=O)Nc1ccc2nc(-c3ccccc3)c(-c3ccccc3)nc2c1      inactive
16  O=C(Nc1ccc2nc(-c3cccs3)c(-c3cccs3)nc2c1)NC1CCCC1      inactive
17  COc1ccc(-c2nc3nc(-c4ccc(S(C)(=O)=O)cc4)cn3nc2-c2ccc(OC)cc2)cc1      inactive
18  N#Cc1ccc(-c2cn3nc(-c4ccccc4)c(-c4ccccc4)nc3n2)cc1      inactive
19  COc1cccc(-c2cn3nc(-c4ccc(C)cc4)c(-c4ccc(C)cc4)nc3n2)c1        active
20  O=C(Nc1ccc2nc(-c3ccccc3)c(-c3ccccc3)nc2c1)OCc1ccccc1      inactive
21  FC(F)(F)Oc1ccc(-c2cn3nc(-c4ccccc4)c(-c4ccccc4)nc3n2)cc1      inactive
22  COc1ccccc1-c1cn2nc(-c3ccc(F)cc3)c(-c3ccc(F)cc3)nc2n1        active
23  COc1ccc(-c2nc3nc(-c4ccc(C)cc4)cn3nc2-c2ccc(OC)cc2)cc1      inactive
